system: PPARg DBDmut:RXRa IVT, anti-PPARg (DBD mutation: PPARg1 K132A/R137A, NR concentration 270 nM, RXRa partner concentration 90 nM); test: PBM binding z-score (relative to random genomic background probes); higher = stronger binding; sequences stand for … in GC…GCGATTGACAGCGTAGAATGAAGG
observation-type: PBM binding z-score

> print(dat)
                      monomer.sequence     observation.type  number
 1  TCGAGTAGGTTACCAATGGGGCCTTCAGCTTTCT  PBM binding z-score  -0.652
 2  ACTAGCAGGCCAAGTTTGGGTCTCTCAAACAAAG  PBM binding z-score   -1.53
 3  CAAACTAGGTCACCGGAAGGTCTAAGTCCGCATG  PBM binding z-score    1.59
 4  TAGCCTAGGTCATGCGGGCCAGTGTAGTGTCGGC  PBM binding z-score  -0.395
 5  TCCAGTAGGTTACCAATGGGGCATTCAGCTTTCT  PBM binding z-score  -0.355
 6  TCAGACAGGTGAAGTTAACTCAGGTACGCAGTCG  PBM binding z-score   0.282
 7  CAAACTAGGTCTCAGAGGTCAAAGTCCGTGCGTA  PBM binding z-score    0.45
 8  TGAATGAGTTTAAAGATCAGGGAACGTGGCGTCG  PBM binding z-score   0.667
 9  CAAACTATGTCACCGGAAGGTCAAAGTCCGCATG  PBM binding z-score   0.711
10  AGAATGAGGTTAAGATCTGGGAAACAGAATACAT  PBM binding z-score    1.23
11  ACTATTAGTTGTCTTAGGGCAACCGATACGACGC  PBM binding z-score    1.35
12  TGAATGAGGTTAAAGATCAGGCAACGTGGCGTCG  PBM binding z-score   0.599
13  CCGAGTAGGTTATGGGGAATTCAGGCAACGGTGA  PBM binding z-score  -0.221
14  CGTCCAAGGGCAAGGTCAGTGAAAGAGACTCGAA  PBM binding z-score   -1.01
15  CGAACTAGGTCAAGAGGTCAAAGTCCGCTTCCCG  PBM binding z-score   0.974
16  TCATATAGGTAATACAGGTCAAAGTCGGCATCTA  PBM binding z-score    2.09
17  TAGCCTAGGTGATGCGGGCCAGTATAGTGTCGGC  PBM binding z-score  -0.831
18  CCGAGTAAGTTATGGGGCATTCAGGCAACGGTGA  PBM binding z-score  0.0533
19  CGTCCAAGGTCAAGGTCAGTAAAAGAGACTCGAA  PBM binding z-score   0.553
20  CCTAGTTGGTCAAGGTTACACACGCTATAGGTAC  PBM binding z-score    1.11
21  ACAGACAGCTGAGTGAAGGTAACTCAGCTGGACG  PBM binding z-score  -0.856
22  AATACAGGGTCTCTAGGCCAGAGTAGGTACGAAT  PBM binding z-score   -0.23
23  ATACCAAGGTGATCGGGAGGTCGTTGATACTAAC  PBM binding z-score   0.229
24  CCAGCCAGGTGAGAAGGTAACTCAGCCTCGATTA  PBM binding z-score   -1.31
25  AATCCAGGGTCACTAGGCCAGAGTAGGTACGAAT  PBM binding z-score    1.17
26  CCTATTAGTTGACCATGAGGGCAACCGAAGCTCG  PBM binding z-score   0.542

---

tested on: PPARg:RXRa 270nM:90nM, anti-RXR (NR concentration 270 nM, RXRa partner concentration 90 nM); assay: PBM binding z-score (relative to random genomic background probes); higher = stronger binding; sequences stand for … in GC…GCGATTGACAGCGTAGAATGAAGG
Classify as follows. Reported PBM binding z-score greater than or equal to 2: label 1. Reported PBM binding z-score below: label 0.

> print(dat)
                      monomer.sequence  class.assignment
 1  TCGAGTAGGTTAGCAATGGGGCATTCAGCTTTCT           label 0
 2  ATGTGTAGGTTAAGGGTCATTCAGGTTGGTTCGC           label 1
 3  AGAACGATGGCAATGAGTTGATAGCACGGGTGGC           label 0
 4  CCTAGCAGGCCAATCTGGGTCACTCACGGCTTGA           label 0
 5  TCTATTAGTTGTTTAGGGCAACCGAAACAGCGGA           label 1
 6  TCTTGTTGATCAATAGAGGTTAAGAAAGTGCGCT           label 0
 7  TGAATGTGGTTAAAGATCAGGGAACGTGGCGTCG           label 1
 8  ATCTCTAGATAAAGTTCAGTGAAAGATCGATAGA           label 1
 9  TCATATAGGTAAAAGGTTAAAGTCGGTGTGGTAA           label 1
10  AGAATGAGGTTAAGATCAGCGAAACAGAATACAT           label 1
11  GCAGACAGGTGAAACGCAGTTAACTCAGGGTGGC           label 0
12  GATTGTAGATCAAGGTTAAGAAAGACTAAGCTAA           label 1

---

tested on: RARa homodimer (NR concentration 270 nM); assay: PBM binding z-score (relative to random genomic background probes); higher = stronger binding; sequences stand for … in GC…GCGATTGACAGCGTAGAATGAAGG
Quick rule for you: PBM binding z-score at 0.9 or higher means t, lower means f.

> print(dat)
                      monomer.sequence  class.assignment
 1  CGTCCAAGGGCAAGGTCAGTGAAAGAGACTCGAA                 f
 2  AATACAGGGTCAGTAGGCCAGAGTAGGTACGAAT                 t
 3  ACTCGGAGGACAAAGTTCAGAGCTACGCCAGTGA                 f
 4  TCTTGTAGATCAACAGGAGTTTAAGAAAGATCGA                 f
 5  TCTTGTAGATCAGCAGGTTAAGCAAGCTGGCCAA                 f
 6  TCTATTAGTTGAAGGGCAACTGACGAGTCCGTTT                 t
 7  GATATTAGTTGAAAGGGCAACCGAATGATTCTCG                 t
 8  CGTACAAGGTCAAGGTCAGTGAAAGAGACTCGAA                 t
 9  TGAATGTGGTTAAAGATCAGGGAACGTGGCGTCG                 f
10  CAAACTAGGTCAAAGGTAAAAGTCGAGCCAACCA                 f

---

test system: RARa:RXR (NR concentration 270 nM, RXRa partner concentration 90 nM); test: PBM binding z-score (relative to random genomic background probes); higher = stronger binding; sequences stand for … in GC…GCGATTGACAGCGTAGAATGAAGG
Note to self: class = bucket of PBM binding z-score, per class A = under 0.9, class B = from 0.9 up to 3, class C = 3 and over

> print(dat)
                      monomer.sequence  class.assignment
 1  CGAACTAGGTCATTGACCGGACAGTGAATAGTAA           class B
 2  CCGAGTAGGTTATCGGGCATTCAGGCAACGGTGA           class A
 3  ACCAGTTGGTCAGCTGAGGTCACACACAATTCGG           class C
 4  GCTGCTAGGTCAGGTTGGTGAGCTAACGGGTACG           class A
 5  CTCGAAAGGTCGTGCTCAGGTGAGAATACCAAAC           class C
 6  TCTTGCAGATCAACAGGAGGTTAAGAAAGATCGA           class A
 7  TTACCAAGGTGAAAGGTCGTGGATGCACGCCTTG           class C
 8  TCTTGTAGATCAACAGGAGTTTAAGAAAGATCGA           class A
 9  TCATATAGGTAAATGCTAGGTGAAAGTTCGATCT           class B
10  ATCGAAAGCTCGACGAGGTGAGTATACACCGTTT           class A
11  CCTAGCAGGCCAATCTGGGTCACTCGAGGCTTGA           class B
12  CCTTACGGGTCACTGACAGGTTATAGCTTTTGGA           class C
13  CGTCCAAGGTCATTGCTAGGTCAGTGAAAGCATT           class C
14  TAGCCTAGATCATGGGCCAGTATACCACGCGAAC           class A
15  ACTAGCAGGCCAAGCTTGGGTCACTCAAACAAAG           class B
16  CTAGAAAGGTCGGTTGAGGTGAGTATACGGATAA           class B
17  CGTCCAAGTTCAACTAAGGTAACGTAAAGCACGC           class B
18  ATATGTAGGTTACATCCGGGTTATTCAGGCTATG           class B
19  ACTCGGCGGACAAAGGTCAGAGCTACGCCAGTGA           class C
20  GGTCGGAGGACAAGGTCAGAGCTTTGTCCGTAGA           class B
21  TGTGAAAGTTCAAAGGTAACGTAAGTATCCACAC           class C
22  CATACAGGGTCAGCTAGGCAAGAGTAGGGACGGC           class B
23  TCGAGTAGGTTATTCGGGGCATTCAGCCAACATA           class A
24  TAGCCTAGGTCAATCAGGGGCCAGTATAGAAAGC           class C
25  TAGCCTAGGTCATTGGGCCAGTAAAGTACGCATC           class B
26  TCTCGGAGGACACGAAAGGTCAAAGCTCGACATC           class C
27  TCTCGGAGGATACGAAAGGTCAGAGCTCGACATC           class C
28  AATACAGGGTCATCGTAGGCCCGAGTACGCACAG           class C
29  CGTCCAAGGTCAATGCTAGGTCAGCGAAAGCATT           class C
30  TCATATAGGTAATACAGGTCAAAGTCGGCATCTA           class C
31  GGAACGAGGGGATTCGAGTTGATAGCATGGCGAT           class A
32  ACTAGCAGGCCAAGGGTCACTCATGATTAGTCCG           class C
33  TAGCCTAGGTCAGATCGGCCCAGTATACGCTATA           class A
34  ATCTCTAGCTAAAGTTCAGTGAAAGATCGATAGA           class B
35  CCTGCTAGGTCATGCTCAGCTAATCTACAGTATG           class B
36  ATCTCTAGGTATGACTCAGTTCAGTGAAGAACGC           class A
37  GCAGACAGGTGAAACGCAGGTACCTCAGGGTGGC           class A
38  TCGATTAGGTTAGGGGCATTCAGAATGGCGTCGA           class A
39  CAAACTAGGTCAAAGTTCAAAGTCGAGCCAACCA           class C
40  AGAACGAGGGCAATGAGATGATAGCACGGGTGGC           class A
41  CCTCGGAGGACAGAAGGTTAGAGCTGTCCGCTTT           class A
42  AGAATGAGGTTACCAATGATCAGGGAAACGCTTG           class B
43  CGTCCAGGGTCATAGGAGGTCAGTGAAGACAGAT           class C
44  CCTACTGGGCCACGAAAGGTCATTGTTTCAGTGA           class C
45  TGAATGAGGTTAAAAGATCAGGGAACGTTGCAAA           class B
46  CGATCTAGGTCATCCAGGACAGTGAATACATTGA           class B
47  GCGACTCGGGCATCAGCAGGTTACCATAACTTAA           class A
48  CGAACTAGGTCCAGGACAGTGAATCTCCGCACGC           class A
49  AGTCGAAGTTCATCTAGGTAACGTAAGATATGCT           class B
